assay: Mouse pharmacokinetic studies; settings: male, BalbC, in vivo, po
measuredAttribute: bioavailability at 24 h
Form field: result (number plus unit)

Task: Given the molecule "N[C@H]1CCN(c2ccnc3ccc(-c4ccc(C(F)(F)F)nc4)nc23)C1" , what is its reported bioavailability at 24 h?
Result: 27%

Task: So what does the record say about bioavailability at 24 h for "CN1CCC(Nc2ccnc3ccc(-c4ccc(C(F)(F)F)nc4)nc23)CC1" ?
Result: 99%

Task: State the recorded bioavailability at 24 h for this entry: "FC(F)(F)c1ccc(-c2ccc3nccc(N[C@@H]4CCNC4)c3n2)cn1"
Result: 96%

----------
Assignment: determine reported IC50 for the given compounds.

Task: Form: Entry = FC(F)(F)c1ccc(-c2ccc3nccc(N[C@@H]4CCNC4)c3n2)cn1 [Compound 16] | System = HuMINK1 (Homo sapiens) | IC50 = ____
Result: > 10 µM

Task: Please tell me: IC50 of N[C@H]1CCN(c2ccnc3ccc(-c4ccc(C(F)(F)F)nc4)nc23)C1 [Compound 14] , system HuMINK1 (Homo sapiens)?
Result: > 10 µM

Data credit: paper PMC11247499
